System: PDC 899932-113-R3-J6 complex spheroid viability;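 also: spheroids exposed to agents for seven days before readout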
Experiment Summary: Anticancer human tumor 899932-113-R3-J6-PDC patient-derived melanoma cell line growth inhibition [RAS]; active = viability on the fitted dose curve at most 10% of control; inactive = the rest
Test Settings: second compound 0.003 µM; first compound 0.0316 µM
Select the correct class. Options are active, inactive and nothing else.

[
  {
    "Molecule": "O=C(c1ccc(F)c(F)c1Nc1ccc(I)cc1F)N1CC(O)([C@@H]2CCCCN2)C1 + CCn1c(-c2cccnc2C(C)OC)c2c3cc(ccc31)N1CCOC(CC(NC(=O)C(C(C)C)N(C)C(=O)C3(F)CCN(C(=O)C#CC(C)(C)N(C)C)CC3)C(=O)N3CCCC(N3)C(=O)OCC(C)(C)C2)C1",
    "System Tested": "PDC 899932-113-R3-J6 complex spheroid viability",
    "Qualitative Label": "active"
  }
]

I would be grateful if you could indicate the recorded call for CCN1CCN(Cc2ccc(Nc3ncc(F)c(-c4cc(F)c5nc(C)n(C(C)C)c5c4)n3)nc2)CC1 + CCn1c(-c2cccnc2C(C)OC)c2c3cc(ccc31)N1CCOC(CC(NC(=O)C(C(C)C)N(C)C(=O)C3(F)CCN(C(=O)C#CC(C)(C)N(C)C)CC3)C(=O)N3CCCC(N3)C(=O)OCC(C)(C)C2)C1 .
inactive

Taken from PubChem BioAssay AID2060895.
